pIC50: −log10 of the molar value.
Target or system PIP4K2B (Homo sapiens); metric pIC50; compiled from varied reports.

CN1CCn2c(cc3c(-c4cncc(-c5ccc(N6CC(C)(C)CCC6=O)cc5)c4)ccnc32)C1=O	6.00 to 7.00
O=C(c1cc2c(-c3cncc(-c4ccc(N5CCCC5=O)cc4)c3)ccnc2[nH]1)N1CCCC(O)(C2CC2)C1 (stereo not shown)	6.00 to 7.00
Nc1nc(Nc2cnc3c(c2)N2C(=O)CC[C@H]2CO3)ncc1-c1ccc(N2CCCC2=O)cc1	8.00 to 9.00
CN(C)C(=O)c1ccc(-c2cc(-c3cc(N)ncn3)cnc2N)nc1	6.00 to 7.00
O=C1CCCN1c1ccc(-c2cncc(-c3cnc4ncc(-c5cncnc5)n4c3)c2)cc1	5.60 to 6.00

Prompt: Value lookup for pIC50; key = "O=C1CCCN1c1ccc(-c2cncc(-c3cc(C4CC4)nc4n[nH]cc34)c2)cc1"
Completion: 6.00 to 7.00

Prompt: Moving on to "CN(C)C(=O)c1ccc(-c2cc(-c3ccnc4[nH]c(C(=O)N5CC6(COC6)C5)cc34)cnc2N)nc1"
Completion: 7.00 to 8.00

Prompt: Moving on to "CN1CCn2c(cc3c(-c4cncc(-c5ccc(N6CCCCC6=O)cc5)c4)ccnc32)C1=O"
Completion: 6.00 to 7.00

Prompt: Moving on to "CN(C)C(=O)c1ccc(-c2cc(-c3cccnc3N)cnc2N)nc1"
Completion: < 5.30

Prompt: Moving on to CC(=O)N1CCOc2ncc(Nc3cc4c(cn3)-c3ccc(C(=O)N(C)C)cc3OC4C)cc21 (stereo not shown)
Completion: 8.00 to 9.00

----------
Target or system PIP4K2B (Homo sapiens); metric IC50; compiled from varied reports.

CC1Oc2cc(N3CCCC3=O)ccc2-c2cnc(Nc3cnc4cccnc4c3)cc21 (stereo not shown)	100 to 1000 nM
O=C1C[C@@H](O)CN1c1ccc(-c2ccc(Nc3cnc4c(c3)N3C(=O)CC[C@H]3CO4)nc2)cc1	10 to 100 nM
O=C(Nc1cncc(Nc2ccc(-c3ccc(N4CCCC4=O)cc3)cn2)c1)N1CCOCC1	10 to 100 nM

Continue with the compound presented below.
Prompt: Value lookup for IC50; key = "CC1(C)Oc2cc(N3CCCC3=O)ccc2-c2cnc(Nc3cncc(CN4CC(F)C4)c3)nc21"
Completion: 100 to 1000 nM

----------
pIC50: −log10 of the molar value.
Target or system PIP4K2B (Homo sapiens, UniProt P78356); metric pIC50; compiled from varied reports.

These solved cases illustrate the format of a correct answer.
O=C1CCCN1c1ccc(-c2cncc(-c3ncnc4n[nH]cc34)c2)cc1	6.00 to 7.00
CC1C[C@H]2COc3ncc(Nc4cc5c(cn4)-c4cc(F)c(N6CCCC6=O)cc4OC5C)cc3N2C1=O (stereo partly shown)	8.00 to 9.00
CN(C)C/C=C/C(=O)Nc1ccc(C(=O)Nc2cncc(Nc3ccc(-c4ccc(C(=O)N(C)C)cc4)cn3)c2)cc1	7.00 to 8.00

Continue with the compound presented below.
Prompt: Value lookup for pIC50; key = COC(=O)N1CCOc2ncc(Nc3cc4c(cn3)-c3ccc(C(=O)N(C)C)cc3OC4C)cc21 (stereo not shown)
Completion: 8.00 to 9.00

----------
Target or system PIP4K2B (Homo sapiens, UniProt P78356); metric pIC50; compiled from varied reports.
pIC50: −log10 of the molar value.

Cc1nc(-c2cncc(-c3ccc(N4CCCC4=O)cc3)c2)c2sc(N3CCCCC3)nc2n1	6.00 to 7.00
CC(C)(O)c1cnc2[nH]c(C3CC3)c(-c3cncc(-c4ccc(N5CCCC5=O)cc4)c3)c2c1	7.00 to 8.00
CN(C)C(=O)c1ccc(-c2ccc(Nc3cnc4c(c3)NCCO4)nc2)cc1	7.00 to 8.00

Prompt: Value lookup for pIC50; key = "Cc1cnnn1-c1ccc(-c2cnc(Nc3cnc4c(c3)N(C(=O)CN(C)C)CCO4)nc2)cc1"
Completion: 7.00 to 8.00

Prompt: Moving on to "CN1CCn2c(cc3c(-c4cncc(-c5ccc(N6CC(C)(C)CC6=O)cc5)c4)ccnc32)C1=O"
Completion: 7.00 to 8.00

Prompt: Moving on to CC1Oc2cc(N3CCCC3=O)ccc2-c2cnc(Nc3cncc(NC(=O)c4ccc5c(c4)B(O)OC5)c3)cc21 (stereo not shown)
Completion: 7.00 to 8.00

Prompt: Moving on to CC1Oc2cc(N3CCCC3=O)ccc2-c2cnc(Nc3cncc(NC(=O)Nc4ccccn4)c3)cc21 (stereo not shown)
Completion: 7.00 to 8.00

Prompt: Moving on to "CN(C)C(=O)c1ccc(-c2ccc(Nc3cnc4c(c3)OCO4)nc2)cc1"
Completion: < 6.00

Prompt: Moving on to "O=C(NCC1CC1)c1cc2c(-c3cncc(-c4ccc(N5CCCC5=O)cc4)c3)ccnc2o1"
Completion: 7.00 to 8.00

Prompt: Moving on to "CCc1ccc2c(c1)N(c1ccc(-c3cncc(-c4ccnc5c4cc4n5CCN(C)C4=O)c3)cc1)C(=O)C2"
Completion: < 5.30

Prompt: Moving on to "CN1C(=O)Cc2c(-c3cncc(-c4ccc(N5CCCC5=O)cc4)c3)ccnc21"
Completion: 5.60 to 6.00

Prompt: Moving on to "CN(C)C(=O)c1ccc(-c2cc(-c3ccnc4[nH]c(C(N)=O)cc34)cnc2N)nc1"
Completion: 7.00 to 8.00

Prompt: Moving on to "O=C1CCCN1c1ccc(-c2cncc(-c3c4n(c5ncncc35)CCC4)c2)cc1"
Completion: 7.00 to 8.00

Prompt: Moving on to "CN(C)C(=O)c1cnc2c(c1)c(-c1cncc(-c3ccc(N4CCCC4=O)cc3)c1)cn2C"
Completion: 6.00 to 7.00

Prompt: Moving on to "O=C(NCCc1ccncc1)c1cc2c(-c3cncc(-c4ccc(N5CCCC5=O)cc4)c3)ccnc2[nH]1"
Completion: 7.00 to 8.00

Prompt: Moving on to "Cc1cc(N2CCCC2=O)ccc1-c1ccc(Nc2cnc3c(c2)N2C(=O)CC[C@H]2CO3)nc1"
Completion: 7.00 to 8.00

Prompt: Moving on to CC1Oc2cc(C(=O)N(C)C)ccc2-c2cnc(Nc3cnc4c(c3)N(C(=O)C3CC3)CCO4)cc21 (stereo not shown)
Completion: 8.00 to 9.00

Prompt: Moving on to "CN(C(=O)c1ccc(-c2cncc(-c3ccnc4[nH]ncc34)c2)cc1)c1cccc(-n2ccnn2)c1"
Completion: < 5.30

Prompt: Moving on to "COc1nc(Nc2cnc3c(c2)N2C(=O)CC[C@H]2CO3)ncc1-c1ccc(-c2nncn2C)cc1"
Completion: 8.00 to 9.00

Prompt: Moving on to "Nc1ncc(-c2ccncc2)cc1-c1ccc(N2CCCC2=O)cc1"
Completion: 6.00 to 7.00

Prompt: Moving on to "COc1nc(Nc2cnc3c(c2)N2C(=O)CC[C@H]2CO3)ncc1-c1ccc(-n2nncc2C)cc1"
Completion: 8.00 to 9.00

Prompt: Moving on to CC1Oc2cc(N3CCCC3=O)ccc2-c2cnc(Nc3cncc(NC(=O)c4cn5ccccc5n4)c3)cc21 (stereo not shown)
Completion: 7.00 to 8.00

Prompt: Moving on to CC1Oc2cc(N3CCCC3=O)ccc2-c2cnc(Nc3cnc4nccnc4c3)cc21 (stereo not shown)
Completion: 6.00 to 7.00

Prompt: Moving on to "O=C1CCCN1c1ccc(-c2cncc(-c3cnc4ncc(-c5cccnc5)n4c3)c2)cc1"
Completion: < 5.30

Prompt: Moving on to "CCN(CC)CCN(C)C(=O)N1CCOc2ncc(Nc3ncc(-c4ccc(N5C(=O)CC[C@H]5C)cc4)c(OC)n3)cc21"
Completion: 7.00 to 8.00

Prompt: Moving on to "CN(C)CCCC(=O)Nc1ccc(C(=O)Nc2cncc(Nc3ccc(-c4ccc(N5CCCC5=O)cc4)cn3)c2)cc1"
Completion: 7.00 to 8.00

Prompt: Moving on to "O=C1CCCN1c1ccc(-c2cncc(-c3ccnc4nncn34)c2)cc1"
Completion: < 5.30

Prompt: Moving on to "Cc1conc1-c1ccc(-c2ccc(Nc3cnc4c(c3)N3C(=O)CC[C@H]3CO4)nc2)cc1"
Completion: 7.00 to 8.00

Prompt: Moving on to "CN(C)C(=O)c1ccc(-c2ccc(Nc3cncc(NC(=O)c4ccc5c(c4)COB5O)c3)nc2)cc1"
Completion: 7.00 to 8.00

Prompt: Moving on to "CN1CCn2c(cc3c(-c4cncc(-c5ccc(C(=O)N6CCC(C)(C)CC6)cc5)c4)ccnc32)C1=O"
Completion: 6.00 to 7.00

Prompt: Moving on to CC1Oc2cc(N3CCCC3=O)ccc2-c2cnc(Nc3cncc(N(C4CC4)S(C)(=O)=O)c3)cc21 (stereo not shown)
Completion: 7.00 to 8.00
